Listed here are molecules together with their documented Ratio NADH/NADPH (U/mg).
- assay details: KARI assay of purified S. exigua KARI and variants with NADH (Examples 6-9)
- Format: biochemical
- assay conditions: specific activity ratio
// no unit, no text: just the number

S63H: Slackia KARI variant with residue S63 mutated to H (protein, UniProt D0WGK0 1-342, looked up, variant S63H) Ketol-acid reductoisomerase …: MSVKTKEKEMAVTILYEQDVDPKVIQGLKVGIIGYGSQGHAHALNLMDSGVDVRVGLREGSSHWKTAEEAGLKVTDMDTAAEEADVIMVLVPDEIQPKVYQEHIAAHLKAGNTLAFAHGFNIHYGYIVPPEDVNVIMCAPKGPGHIVRRQFTEGSGVPDLACVQQDATGNAWDIVLSYCWGVGGARSGIIKATFAEETEEDLFGEQAVLCGGLVELVKAGFETLTEAGYPPELAYFECYHEMKMIVDLMYESGIHFMNYSISNTAEYGEYYAGPKVINEQSREAMKEILKRIQDGSFAQEFVDDCNNGHKRLLEQREAINTHPIETTGAQIRSMFSWIKKED
4

Okay, now this molecule:
Tell us which Ratio NADH/NADPH (U/mg) value is on record for Se1_KARI^1H1: S. exigua KARI variant R58P, S61C (protein, UniProt D0WGK0 1-342, looked up, variant R58P S61C) Ketol-acid reductoisomerase …: MSVKTKEKEMAVTILYEQDVDPKVIQGLKVGIIGYGSQGHAHALNLMDSGVDVRVGLPEGCSSWKTAEEAGLKVTDMDTAAEEADVIMVLVPDEIQPKVYQEHIAAHLKAGNTLAFAHGFNIHYGYIVPPEDVNVIMCAPKGPGHIVRRQFTEGSGVPDLACVQQDATGNAWDIVLSYCWGVGGARSGIIKATFAEETEEDLFGEQAVLCGGLVELVKAGFETLTEAGYPPELAYFECYHEMKMIVDLMYESGIHFMNYSISNTAEYGEYYAGPKVINEQSREAMKEILKRIQDGSFAQEFVDDCNNGHKRLLEQREAINTHPIETTGAQIRSMFSWIKKED 0.8
